# System: 293T-HRE-GFP-luc cells
# assay.protocol: Cell-based reporter assay for IC50 determinations
# condition.context: hypoxia 6 hrs (1% O2), luminescence, read-out: IC50 Classification
pIC50: −log10 of the molar value.
experimental.readout: pIC50

[[record]]
compound = "Cc1cccc(Cn2nc(-c3nc(-c4ccc(OC(F)(F)F)cc4)no3)nc2C)c1 [Example 100]"
result = "5.00 to 6.00"

[[record]]
compound = "Cc1nc(-c2nc(-c3ccc(OC(F)(F)F)cc3)no2)nn1Cc1cccc(OCC(O)CO)c1 (stereo not shown) [Example 86]"
result = "> 7.00"

[[record]]
compound = "COCCCNc1nccc(Cn2nc(-c3nc(-c4ccc(OC(F)(F)F)cc4)no3)nc2C)n1 [Example 117]"
result = "6.00 to 7.00"

[[record]]
compound = "Cc1nc(-c2nc(-c3ccc(OC(F)(F)F)cc3)no2)nn1Cc1ccnc(OCCN(C)C)c1 [Example 143]"
result = "6.00 to 7.00"

[[record]]
compound = "COCCCn1ccc(Cn2nc(-c3nc(-c4ccc(OC(F)(F)F)cc4)no3)nc2C)cc1=O [Example 142]"
result = "6.00 to 7.00"

[[record]]
compound = "Cc1nc(-c2nc(-c3ccc(OC(F)(F)F)cc3)no2)nn1Cc1cccc(N2CCC(S(C)(=O)=O)CC2)c1 [Example 80]"
result = "> 7.00"

[[record]]
compound = "Cc1nc(-c2nc(-c3ccc(OC(F)(F)F)cc3)cs2)nn1Cc1cccc(OCCO)c1 [Example 91]"
result = "6.00 to 7.00"

[[record]]
compound = "Cc1ccc(Cn2nc(-c3ncc(-c4ccc(OC(F)(F)F)cc4)o3)nc2C)cc1 [Example 154]"
result = "6.00 to 7.00"

[[record]]
compound = "Cc1nc(-c2nc(-c3ccc(OC(F)(F)F)cc3)no2)nn1Cc1ccnc(NCCN2CCOCC2)c1 [Example 35]"
result = "> 7.00"

[[record]]
compound = "Cc1nc(-c2nc(-c3ccc(OC(F)(F)F)cc3)no2)nn1Cc1cccc(OCC(=O)N(C)C)c1 [Example 62]"
result = "> 7.00"

[[record]]
compound = "CCCNS(=O)(=O)c1cccc(Cn2nc(-c3nc(-c4ccc(OC(F)(F)F)cc4)no3)nc2C)c1 [Example 137]"
result = "> 7.00"

[[record]]
compound = "Cc1nc(-c2ncc(-c3ccc(OC(F)(F)F)cc3)o2)nn1Cc1cccc(S(=O)(=O)N2CCOCC2)c1 [Example 153]"
result = "6.00 to 7.00"

[[record]]
compound = "Cc1nc(-c2nc(-c3ccc(OC(F)(F)F)cc3)no2)nn1Cc1ccnc(N2CCC(S(C)(=O)=O)CC2)c1 [Example 146]"
result = "> 7.00"

[[record]]
compound = "Cc1nc(-c2noc(-c3ccc(OC(F)(F)F)cc3)n2)nn1Cc1cccc(N2CCN(C)CC2)c1 [Example 56]"
result = "> 7.00"

[[record]]
compound = "Cc1nc(-c2ccc(-c3ccccc3)o2)nn1Cc1ccnc(N2CCN(C)CC2)c1 [Example 3]"
result = "5.00 to 6.00"

[[record]]
compound = "Cc1ccc(Cn2nc(-c3nc(-c4ccc(OC(F)(F)F)cc4)no3)nc2C)cc1 [Example 15]"
result = "> 7.00"


* * *

# System: 293T-HRE-GFP-luc cells
# assay.protocol: Cell-based reporter assay for IC50 determinations
# condition.context: hypoxia 6 hrs (1% O2), luminescence, read-out: IC50 Classification
pIC50: −log10 of the molar value.
experimental.readout: pIC50

[[record]]
line_notation = "Cc1nc(-c2nc(-c3ccc(OC(F)(F)F)cc3)no2)nn1Cc1cccc(S(=O)(=O)N2CCN(C)CC2)c1"
experimental_readout = "pIC50"
result = "> 7.00"

[[record]]
line_notation = "Cc1nc(-c2nc(-c3ccc(OC(F)(F)F)cc3)no2)nn1Cc1ccc(Cl)s1"
experimental_readout = "pIC50"
result = "6.00 to 7.00"

[[record]]
line_notation = "Cc1nc(-c2nc(-c3ccc(OC(F)(F)F)cc3)no2)nn1Cc1ccnc(N2CCC(O)CC2)c1"
experimental_readout = "pIC50"
result = "> 7.00"

[[record]]
line_notation = "Cc1nc(-c2nc(-c3ccc(OC(F)(F)F)cc3)no2)nn1Cc1cccc(C(=O)O)c1"
experimental_readout = "pIC50"
result = "6.00 to 7.00"

[[record]]
line_notation = "Cc1nc(-c2nc(-c3ccc(OC(F)(F)F)cc3)no2)nn1Cc1ccc(C(C)C)cc1"
experimental_readout = "pIC50"
result = "6.00 to 7.00"

[[record]]
line_notation = "COC(=O)c1cccc(Cn2nc(-c3ncc(-c4ccc(OC(F)(F)F)cc4)o3)nc2C)c1"
experimental_readout = "pIC50"
result = "6.00 to 7.00"

[[record]]
line_notation = "COCCCOc1ccc(Cn2nc(-c3nc(-c4ccc(OC(F)(F)F)cc4)no3)nc2C)cn1"
experimental_readout = "pIC50"
result = "6.00 to 7.00"

[[record]]
line_notation = "Cc1nc(-c2nc(-c3ccc(OC(F)(F)F)cc3)no2)nn1Cc1cccc(C(=O)NCCN(C)C)c1"
experimental_readout = "pIC50"
result = "> 7.00"


* * *

# Tested on: 293T-HRE-GFP-luc cells
# assay.protocol: Cell-based reporter assay for IC50 determinations
# condition.context: hypoxia 6 hrs (1% O2), luminescence, read-out: IC50 Classification
Structures can show the parent of a compound that is named as a salt.
experimental.readout: IC50

[[record]]
compound = "Cc1nc(-c2nc(-c3ccccc3)no2)nn1Cc1ccnc(N2CCN(C)CC2)c1 [Example 29, bis-trifluoroacetate]"
assayed_system = "293T-HRE-GFP-luc cells"
experimental_readout = "IC50"
result = "1000 to 10000 nM"

[[record]]
compound = "Cc1nc(-c2nc(-c3ccc(OC(F)(F)F)cc3)no2)nn1Cc1cccc(OC2CCN(C)CC2)c1"
assayed_system = "293T-HRE-GFP-luc cells"
experimental_readout = "IC50"
result = "< 100 nM"

[[record]]
compound = "Cc1nc(-c2nc(-c3ccc(OC(F)(F)F)cc3)no2)nn1Cc1ccccc1"
assayed_system = "293T-HRE-GFP-luc cells"
experimental_readout = "IC50"
result = "100 to 1000 nM"

[[record]]
compound = "Cc1nc(-c2nc(-c3ccc(OC(F)(F)F)cc3)no2)nn1Cc1ccnc(N2CCC(C#N)CC2)c1"
assayed_system = "293T-HRE-GFP-luc cells"
experimental_readout = "IC50"
result = "< 100 nM"

[[record]]
compound = "Cc1nc(-c2nnc(-c3ccccc3)o2)nn1Cc1ccnc(N2CCC(C)(C)CC2)c1 [Example 5, trifluoroacetate]"
assayed_system = "293T-HRE-GFP-luc cells"
experimental_readout = "IC50"
result = "1000 to 10000 nM"

[[record]]
compound = "Cc1nc(-c2nc(-c3ccc(OC(F)(F)F)cc3)no2)nn1Cc1ccnc(N2CCS(=O)(=O)CC2)c1 [Example 43, trifluoroacetate]"
assayed_system = "293T-HRE-GFP-luc cells"
experimental_readout = "IC50"
result = "100 to 1000 nM"

[[record]]
compound = "Cc1nc(-c2nc(-c3ccc(OC(F)(F)F)cc3)no2)nn1Cc1cccc(OCCN)c1"
assayed_system = "293T-HRE-GFP-luc cells"
experimental_readout = "IC50"
result = "100 to 1000 nM"

[[record]]
compound = "Cc1nc(-c2nc(-c3ccc(OC(F)(F)F)cc3)no2)nn1Cc1cccc(OCCCN(C)C)c1"
assayed_system = "293T-HRE-GFP-luc cells"
experimental_readout = "IC50"
result = "< 100 nM"

[[record]]
compound = "CNS(=O)(=O)c1cccc(Cn2nc(-c3nc(-c4ccc(OC(F)(F)F)cc4)no3)nc2C)c1"
assayed_system = "293T-HRE-GFP-luc cells"
experimental_readout = "IC50"
result = "< 100 nM"

[[record]]
compound = "Cc1nc(-c2nc(-c3ccc(OC(F)(F)F)cc3)no2)nn1Cc1cccc(S(=O)(=O)N2CCCC2)c1"
assayed_system = "293T-HRE-GFP-luc cells"
experimental_readout = "IC50"
result = "< 100 nM"

[[record]]
compound = "COc1ccc(Cn2nc(-c3nc(-c4ccc(OC(F)(F)F)cc4)no3)nc2C)cc1C(F)(F)F"
assayed_system = "293T-HRE-GFP-luc cells"
experimental_readout = "IC50"
result = "1000 to 10000 nM"

[[record]]
compound = "COc1nccc(Cn2nc(-c3nc(-c4ccc(OC(F)(F)F)cc4)no3)nc2C)n1"
assayed_system = "293T-HRE-GFP-luc cells"
experimental_readout = "IC50"
result = "1000 to 10000 nM"

[[record]]
compound = "Cc1nc(-c2nc(-c3ccc(OC(F)(F)F)cc3)no2)nn1Cc1ccnc(N2CCNCC2)c1 [Example 1, trifluoroacetate]"
assayed_system = "293T-HRE-GFP-luc cells"
experimental_readout = "IC50"
result = "100 to 1000 nM"

[[record]]
compound = "Cc1nc(-c2nc(-c3ccc(OC(F)(F)F)cc3)no2)nn1Cc1cccc(N2CCCC2)c1"
assayed_system = "293T-HRE-GFP-luc cells"
experimental_readout = "IC50"
result = "100 to 1000 nM"

[[record]]
compound = "Cc1nc(-c2nc(-c3ccc(OC(F)(F)F)cc3)no2)nn1Cc1ccnc(N2CCN(C)CC2)c1"
assayed_system = "293T-HRE-GFP-luc cells"
experimental_readout = "IC50"
result = "< 100 nM"

